- ASSAY REMARKS: Peptide hydrogel formation, vial-inverting method
- Assay type: physicochemical
- MEASUREMENT SETUP: 120 mM peptide (highest tested) in ultrapure water; pH 6.5-8.5 (1 N NaOH), ultrasonication, standing 48 h; vial-inverting method; precipitate, sol, suspension = no gel
Where a SMILES comes first, the peptide text is derived from it.
READOUT TYPE: State

{"COMPOUND": "CC[C@H](C)[C@H](NC(=O)[C@@H](NC(=O)[C@H](C)N)C(C)C)C(=O)N[C@@H](CCC(N)=O)C(=O)O [AVIQ] (H-AVIQ-OH)", "READOUT TYPE": "State", "RESULT": "suspension"}
{"COMPOUND": "CC[C@H](C)[C@H](NC(=O)[C@@H](NC(=O)[C@H](Cc1c[nH]cn1)NC(=O)[C@@H](N)CC(C)C)[C@@H](C)CC)C(=O)O [LHII] (H-LHII-OH)", "READOUT TYPE": "State", "RESULT": "sol"}
{"COMPOUND": "C[C@@H](O)[C@H](N)C(=O)NCC(=O)N[C@@H](Cc1ccccc1)C(=O)N[C@@H](Cc1ccccc1)C(=O)O [TGFF] (H-TGFF-OH)", "READOUT TYPE": "State", "RESULT": "gel"}
{"COMPOUND": "CC[C@H](C)[C@H](N)C(=O)N[C@@H](Cc1c[nH]cn1)C(=O)N[C@@H](Cc1ccccc1)C(=O)N[C@H](C(=O)O)C(C)C [IHFV] (H-IHFV-OH)", "READOUT TYPE": "State", "RESULT": "sol"}
{"COMPOUND": "N[C@@H](Cc1c[nH]c2ccccc12)C(=O)N[C@@H](Cc1c[nH]c2ccccc12)C(=O)N[C@@H](CS)C(=O)N1CCC[C@H]1C(=O)O [WWCP] (H-WWCP-OH)", "READOUT TYPE": "State", "RESULT": "precipitate"}
{"COMPOUND": "CC(C)C[C@H](NC(=O)[C@H](C)NC(=O)[C@@H](N)CC(=O)O)C(=O)N[C@H](C(=O)O)C(C)C [DALV] (H-DALV-OH)", "READOUT TYPE": "State", "RESULT": "suspension"}
{"COMPOUND": "C[C@H](NC(=O)[C@H](Cc1ccc(O)cc1)NC(=O)[C@@H](N)Cc1ccccc1)C(=O)N[C@@H](Cc1ccc(O)cc1)C(=O)O [FYAY] (H-FYAY-OH)", "READOUT TYPE": "State", "RESULT": "gel"}
{"COMPOUND": "CC(C)[C@H](NC(=O)[C@H](C)NC(=O)[C@@H](N)[C@@H](C)O)C(=O)N[C@@H](Cc1ccccc1)C(=O)O [TAVF] (H-TAVF-OH)", "READOUT TYPE": "State", "RESULT": "gel"}
{"COMPOUND": "CC(C)[C@H](N)C(=O)N[C@@H](CO)C(=O)N[C@@H](Cc1c[nH]c2ccccc12)C(=O)N[C@@H](Cc1ccc(O)cc1)C(=O)O [VSWY] (H-VSWY-OH)", "READOUT TYPE": "State", "RESULT": "precipitate"}
{"COMPOUND": "N[C@@H](Cc1ccccc1)C(=O)NCC(=O)N[C@@H](Cc1c[nH]c2ccccc12)C(=O)N[C@@H](Cc1c[nH]c2ccccc12)C(=O)O [FGWW] (H-FGWW-OH)", "READOUT TYPE": "State", "RESULT": "precipitate"}
{"COMPOUND": "C[C@H](NC(=O)[C@@H](N)CS)C(=O)N[C@@H](Cc1ccc(O)cc1)C(=O)N[C@@H](Cc1c[nH]c2ccccc12)C(=O)O [CAYW] (H-CAYW-OH)", "READOUT TYPE": "State", "RESULT": "precipitate"}
{"COMPOUND": "CC(C)C[C@H](NC(=O)[C@H](C)NC(=O)[C@@H](N)CC(C)C)C(=O)N[C@@H](CCCNC(=N)N)C(=O)O [LALR] (H-LALR-OH)", "READOUT TYPE": "State", "RESULT": "suspension"}
